target-desc: human KDR (VEGFR2) on cells (human, UniProt P35968 20-1356); further: test concentration or dose not given here
Sequence (P35968 20-1356): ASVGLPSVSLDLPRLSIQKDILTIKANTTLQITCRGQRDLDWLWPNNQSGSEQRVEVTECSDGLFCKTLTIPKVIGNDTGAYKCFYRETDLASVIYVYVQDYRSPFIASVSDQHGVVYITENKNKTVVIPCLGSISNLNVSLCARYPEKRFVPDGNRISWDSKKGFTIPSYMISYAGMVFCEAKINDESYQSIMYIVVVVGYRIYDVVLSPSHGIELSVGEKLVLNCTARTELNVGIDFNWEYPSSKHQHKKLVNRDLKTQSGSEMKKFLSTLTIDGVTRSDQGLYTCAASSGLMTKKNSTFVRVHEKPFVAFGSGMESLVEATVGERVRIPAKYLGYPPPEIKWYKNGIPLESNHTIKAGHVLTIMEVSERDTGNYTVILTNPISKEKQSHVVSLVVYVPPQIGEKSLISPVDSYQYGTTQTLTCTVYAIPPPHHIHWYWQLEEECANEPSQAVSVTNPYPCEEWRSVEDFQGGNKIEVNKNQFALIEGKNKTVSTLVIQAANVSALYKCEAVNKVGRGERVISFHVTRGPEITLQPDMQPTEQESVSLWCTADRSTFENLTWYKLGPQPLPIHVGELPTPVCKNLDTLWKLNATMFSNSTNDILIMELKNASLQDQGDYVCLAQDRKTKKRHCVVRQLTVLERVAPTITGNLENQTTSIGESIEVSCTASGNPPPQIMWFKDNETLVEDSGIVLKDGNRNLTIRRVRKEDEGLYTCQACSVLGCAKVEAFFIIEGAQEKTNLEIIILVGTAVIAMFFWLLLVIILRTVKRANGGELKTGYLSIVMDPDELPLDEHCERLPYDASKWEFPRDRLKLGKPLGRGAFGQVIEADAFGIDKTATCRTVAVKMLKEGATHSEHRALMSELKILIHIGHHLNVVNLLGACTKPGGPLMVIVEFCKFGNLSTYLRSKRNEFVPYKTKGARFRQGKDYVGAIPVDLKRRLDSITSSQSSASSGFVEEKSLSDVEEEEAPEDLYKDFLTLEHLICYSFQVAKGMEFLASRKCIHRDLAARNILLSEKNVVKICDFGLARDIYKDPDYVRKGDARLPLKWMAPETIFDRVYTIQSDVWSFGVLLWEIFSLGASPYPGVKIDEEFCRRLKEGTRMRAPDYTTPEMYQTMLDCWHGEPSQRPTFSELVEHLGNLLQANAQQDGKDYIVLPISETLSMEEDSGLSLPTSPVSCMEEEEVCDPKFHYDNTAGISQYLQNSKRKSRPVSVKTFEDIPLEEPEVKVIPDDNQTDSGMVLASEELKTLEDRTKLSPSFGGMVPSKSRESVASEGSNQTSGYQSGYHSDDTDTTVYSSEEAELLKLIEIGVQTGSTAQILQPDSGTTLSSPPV
method-summary: cell-based or functional assay
metric-name: % Inhibition of VEGF-E-mediated pTyr Activity (%)

binder	unit-info	readout-value
anti-KDR monoclonal antibody 22B8 (antibody, V domains shown, Fully human mAb from XenoMouse (IgG2 or IgG4 strain); hybridoma supernatant) VH: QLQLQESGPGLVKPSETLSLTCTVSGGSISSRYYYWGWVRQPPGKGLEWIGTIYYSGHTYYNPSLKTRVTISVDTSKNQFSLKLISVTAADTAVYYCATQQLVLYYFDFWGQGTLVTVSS VL: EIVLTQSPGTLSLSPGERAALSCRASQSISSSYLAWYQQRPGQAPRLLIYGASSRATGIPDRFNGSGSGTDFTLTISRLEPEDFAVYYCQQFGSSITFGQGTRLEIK	%	61
anti-KDR monoclonal antibody 33E1 (antibody, V domains shown, Fully human mAb from XenoMouse (IgG2 or IgG4 strain); hybridoma supernatant) VH: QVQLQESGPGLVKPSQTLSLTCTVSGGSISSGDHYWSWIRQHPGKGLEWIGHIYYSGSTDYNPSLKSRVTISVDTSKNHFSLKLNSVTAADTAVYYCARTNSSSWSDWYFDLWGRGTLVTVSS VL: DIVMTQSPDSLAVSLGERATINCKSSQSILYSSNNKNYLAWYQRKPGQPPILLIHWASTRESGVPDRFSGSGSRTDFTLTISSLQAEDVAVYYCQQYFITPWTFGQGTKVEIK	%	46
anti-KDR monoclonal antibody 30F6 (antibody, V domains shown, Fully human mAb from XenoMouse (IgG2 or IgG4 strain); hybridoma supernatant) VH: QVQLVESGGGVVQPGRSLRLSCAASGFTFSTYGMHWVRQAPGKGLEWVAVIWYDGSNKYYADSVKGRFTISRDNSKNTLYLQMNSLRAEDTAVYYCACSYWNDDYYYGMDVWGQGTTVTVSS VL: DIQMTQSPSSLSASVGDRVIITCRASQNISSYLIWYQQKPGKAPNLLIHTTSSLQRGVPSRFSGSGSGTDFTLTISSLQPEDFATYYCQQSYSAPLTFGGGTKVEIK	%	56
